- Test system: Aspergillus niger
- ASSAY DETAILS: Antifungal activity against Aspergillus niger MTCC 282 after overnight incubation by broth microdilution method
- Type: functional

MOLECULAR STRING	RESULT COMPARATOR	MIC99, mg/L
O=C(c1ccc(-c2cc3c(ccc4ccccc43)oc2=O)nc1)c1ccccc1O	=	500
O=C(c1ccc(-c2cc3ccccc3oc2=O)nc1)c1ccccc1O	=	1000
O=C(c1ccc(-c2cc3cc(Br)ccc3oc2=O)nc1)c1ccccc1O	>	1000
COc1cccc2cc(-c3ccc(C(=O)c4ccccc4O)cn3)c(=O)oc12	>	1000
COc1cccc2cc(-c3ccc(C(=O)c4cc(Cl)ccc4O)cn3)c(=O)oc12	>	1000
Cc1ccc(O)c(C(=O)c2ccc(-c3cc4ccccc4oc3=O)nc2)c1	=	1000
Cc1ccc(O)c(C(=O)c2ccc(-c3cc4c(ccc5ccccc54)oc3=O)nc2)c1	=	1000
COc1cccc2cc(-c3ccc(C(=O)c4cc(C)ccc4O)cn3)c(=O)oc12	=	500

Values were extracted from ChEMBL document CHEMBL3045761.
